- measured on: UniProt:P42336
- Sequence (P42336 whole entry, looked up): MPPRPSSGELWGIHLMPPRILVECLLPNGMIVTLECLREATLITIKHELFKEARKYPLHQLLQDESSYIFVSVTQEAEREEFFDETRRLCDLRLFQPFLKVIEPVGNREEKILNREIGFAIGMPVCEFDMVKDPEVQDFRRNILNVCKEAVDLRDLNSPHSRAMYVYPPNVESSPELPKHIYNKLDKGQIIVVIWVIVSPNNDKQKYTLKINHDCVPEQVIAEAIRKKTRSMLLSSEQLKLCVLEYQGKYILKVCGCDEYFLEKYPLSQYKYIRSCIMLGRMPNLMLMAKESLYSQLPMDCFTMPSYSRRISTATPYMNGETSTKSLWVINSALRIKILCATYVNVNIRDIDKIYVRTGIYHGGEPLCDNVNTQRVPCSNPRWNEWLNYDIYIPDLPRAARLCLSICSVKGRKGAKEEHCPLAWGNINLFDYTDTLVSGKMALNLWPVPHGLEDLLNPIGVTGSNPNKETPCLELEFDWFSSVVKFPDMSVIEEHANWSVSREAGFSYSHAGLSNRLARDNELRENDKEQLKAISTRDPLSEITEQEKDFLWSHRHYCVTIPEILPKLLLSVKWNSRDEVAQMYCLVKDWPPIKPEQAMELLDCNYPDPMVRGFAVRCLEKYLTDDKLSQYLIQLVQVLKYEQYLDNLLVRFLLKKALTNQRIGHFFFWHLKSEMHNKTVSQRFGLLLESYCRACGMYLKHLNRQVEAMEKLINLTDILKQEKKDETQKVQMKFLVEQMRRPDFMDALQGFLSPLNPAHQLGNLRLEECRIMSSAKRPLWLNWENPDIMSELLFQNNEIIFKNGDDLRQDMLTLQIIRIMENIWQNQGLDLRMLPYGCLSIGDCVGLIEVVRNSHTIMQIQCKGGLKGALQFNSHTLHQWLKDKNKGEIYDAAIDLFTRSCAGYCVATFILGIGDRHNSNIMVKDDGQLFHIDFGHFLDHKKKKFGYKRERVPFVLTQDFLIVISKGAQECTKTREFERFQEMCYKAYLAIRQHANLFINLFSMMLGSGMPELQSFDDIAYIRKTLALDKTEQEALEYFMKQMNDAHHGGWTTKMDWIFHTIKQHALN
- assay name: Enzyme Assay
assay metric: pIC50
Answers are plain numbers, as −log10 of the molar value.

As a guide, the following entries are already answered.
Challenge: Lab note: record pIC50 of Nc1nc(N2C[C@@H](O)C[C@H]2c2nc3cccc(C(F)(F)F)c3c(=O)n2-c2ccccc2)c2nc[nH]c2n1 tested on UniProt:P42336.
Response given: 6.29

Challenge: Quote pIC50 with test system UniProt:P42336 for N#Cc1c(N)ncnc1N1C[C@@H](O)C[C@H]1c1nc2cccc(C(F)(F)F)c2c(=O)n1-c1cccc(F)c1
Response given: 5.03

Challenge: Using UniProt:P42336 as the test system, report measured pIC50 of Cc1nc(N)nc(N2C[C@@H](O)C[C@H]2c2nc3ccc(F)c(C4CC4)c3c(=O)n2-c2ccccc2)c1C#N .
Response given: 6.96

Challenge: Lab note: UniProt:P42336 assay, enter pIC50 for N#Cc1c(N)ncnc1N1CCC[C@H]1c1nc2ccc(F)c(C(F)(F)F)c2c(=O)n1-c1ccccc1 here
Response given: 5.38

We now examine a further molecule.
Challenge: Report its pIC50 with UniProt:P42336 as the test system: Cc1nc(N)nc(N2CCC[C@H]2c2nc3cccc(Cl)c3c(=O)n2C2CC2)c1C#N
Response given: 6.03
